Target: Fuc(a1-2)Gal(b1-4)GlcNAc(b1-2)Man(a1-3)[Fuc(a1-2)Gal(b1-4)GlcNAc(b1-2)Man(a1-6)]Man(b1-4)GlcNAc(b1-4)[Fuc(a1-6)]GlcNAc
Assay: glycan array binding signal (z-score within array); higher = stronger binding
Settings: glycan notation: IUPAC condensed, linker removed
Shown is part of a subset that was picked to be rich in the strongest signals.
Quantity: glycan array binding signal (z-score)
API note: the answer field is a bare number with no unit suffix.

Reference set (2 entries):
Look up glycan array binding signal (z-score): CPA (Cicer arietinum) (protein) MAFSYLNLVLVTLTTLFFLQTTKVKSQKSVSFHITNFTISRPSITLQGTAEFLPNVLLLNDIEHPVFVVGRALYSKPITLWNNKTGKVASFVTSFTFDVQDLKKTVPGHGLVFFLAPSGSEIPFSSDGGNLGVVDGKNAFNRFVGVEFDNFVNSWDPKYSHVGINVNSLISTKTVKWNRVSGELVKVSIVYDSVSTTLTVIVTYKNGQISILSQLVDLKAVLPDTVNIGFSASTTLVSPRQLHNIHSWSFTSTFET
0.297

Which measured glycan array binding signal (z-score) value corresponds to PpFlo3 (Pichia pastoris) (protein) MGSSHHHHHHSSGLVPRGSHMQESGNGTTSDTAYACDIGATPFDGFNATIYQYQASDDNSIQDPVFMSTGYLQRNQLHSTTGVTNPGFNIFTAGVATTTLYGIPNVNYQNMLLELKGYFRADASGNYGLSLRNIDDSAILFFGRETAFECCNENLIPLDEAPTDYSLFTIKEGEASTNPDSYTYTQYLEAGRYYPVRTFFANIRTRAVFNFTMTLPDGSELTDFQNYIFQFGALNQ ?
-0.263

Now, please, on to the next binder.
Which glycan array binding signal (z-score) is reported for this binder? Gal 2 (Canis lupus) (protein) MSGKFEVMNMDMKLGGTLKIKGKIAGDADGFVINLGQGSDKLNLHFNPRFHESVIVCNSRNWGQEQRDKHMCFSPGSEVKFTVTFENDGFKVKLPDGHQLTFPNRLGHSHLSYLGVQGGLKVSSFKIE
0.046
